These entries and their values trace back to paper PMC3869945.

Test system: DENV-2
Protocol description: Virus replication inhibition assay in Vero cells, cell-free viral RNA by qPCR
Type: cell-based
Assay setup: Vero cells, qPCR, 100 to 0.4 μM dose response, Hill regression
Metric: IC50 (nM)
Give just the number in nM; leave the unit off.

// Cc1ccc(C2CC(c3ccc([N+](=O)[O-])cc3)C3=C(O2)C(=O)c2ccccc2C3=O)cc1 (centres unmarked) [9b] : IC50 value = 1640

// field: IC50; key: Cc1ccc(C2CC(c3ccc([N+](=O)[O-])cc3)C3=C(O2)C(=O)c2ccccc2C3=O)cc1 (centres unmarked) [9c] ; value = 311
